- procedureDetails: NF-kB reporter blockers in CF airway cells – cell-based, GFP fluorescence, uHTS, primary screen (AID 588850);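 further: PAF is a Pseudomonas aeruginosa culture filtrate used as stimulus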
- appliedConditions: KKLEB NF-kB-GFP reporter, PAF-induced, GFP fluorescence overnight; at 5 µM
Out of some 360,000 compounds screened, about 3,100 (0.86%) were called active.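 How the source made its calls: active means at least 50% inhibition at 5 µM, scaled per plate between neutral and stimulator controls; inactive means the rest.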 The entries come from a sample that favours actives as a whole.
Possible outcomes: active, inactive

molecule: Cc1cccc(NC(=O)c2ccc([N+](=O)[O-])o2)c1
groupLabel: active
//
molecule: CC(=O)OC(C)C[N+](C)(C)C (stereo not drawn)
groupLabel: active
//
molecule: Nc1nnc(C2CCCC2)s1
groupLabel: inactive
